Origin of values: ChEMBL document CHEMBL1833803

Molecular target: Tyrosine-protein kinase JAK2 (Homo sapiens)
Sequence (O60674 whole entry): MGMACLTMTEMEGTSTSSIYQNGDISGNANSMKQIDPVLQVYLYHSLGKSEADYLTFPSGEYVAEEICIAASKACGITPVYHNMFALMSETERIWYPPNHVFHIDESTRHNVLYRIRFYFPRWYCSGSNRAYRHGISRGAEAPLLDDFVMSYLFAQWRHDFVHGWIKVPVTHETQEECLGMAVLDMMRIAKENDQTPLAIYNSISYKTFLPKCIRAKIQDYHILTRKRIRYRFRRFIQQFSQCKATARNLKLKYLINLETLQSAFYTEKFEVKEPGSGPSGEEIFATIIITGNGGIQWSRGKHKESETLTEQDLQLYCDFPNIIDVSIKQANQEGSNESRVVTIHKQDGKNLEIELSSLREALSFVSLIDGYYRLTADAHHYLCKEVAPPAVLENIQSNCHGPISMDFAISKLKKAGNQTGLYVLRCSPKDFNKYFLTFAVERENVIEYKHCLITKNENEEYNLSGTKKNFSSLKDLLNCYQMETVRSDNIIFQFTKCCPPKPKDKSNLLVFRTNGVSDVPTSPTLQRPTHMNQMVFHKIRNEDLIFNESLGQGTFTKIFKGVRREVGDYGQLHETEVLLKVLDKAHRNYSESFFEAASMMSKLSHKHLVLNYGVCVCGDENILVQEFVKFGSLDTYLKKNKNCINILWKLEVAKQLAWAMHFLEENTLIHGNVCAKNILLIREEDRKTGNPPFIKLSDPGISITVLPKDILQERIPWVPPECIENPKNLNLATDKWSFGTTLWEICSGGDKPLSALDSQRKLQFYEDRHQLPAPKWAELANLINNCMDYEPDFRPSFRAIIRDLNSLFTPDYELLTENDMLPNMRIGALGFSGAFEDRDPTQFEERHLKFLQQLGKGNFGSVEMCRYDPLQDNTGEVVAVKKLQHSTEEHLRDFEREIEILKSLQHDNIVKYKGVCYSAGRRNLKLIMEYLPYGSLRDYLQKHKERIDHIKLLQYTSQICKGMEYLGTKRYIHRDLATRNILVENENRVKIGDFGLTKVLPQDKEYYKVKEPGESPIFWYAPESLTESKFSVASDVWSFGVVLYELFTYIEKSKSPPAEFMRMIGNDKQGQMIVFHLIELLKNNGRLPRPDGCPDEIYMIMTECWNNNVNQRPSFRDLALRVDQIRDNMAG
Assay: Inhibition of JAK2 using biotin-EQEDEPEGDYFEWLE- NH2 as substrate
recorded.metric: IC50 (nM)

Guide cases for IC50, answers given:
CNc1ncc(C(N)=O)c2[nH]c3ccc(F)cc3c12 ... 210
CC(C)C(Nc1ncc(C(N)=O)c2[nH]c3cc(-c4cnn(C)c4)ccc3c12)C1CC1 (stereo not given) ... 3
CC(C)Nc1ncc(C(N)=O)c2[nH]c3ccc(F)cc3c12 ... 100

1: C[C@H](Nc1ncc(C(N)=O)c2[nH]c3ccc(F)cc3c12)C(C)(C)C
2: Cn1cc(-c2ccc3c(c2)[nH]c2c(C(N)=O)cnc(NC(C4CC4)C4CC4)c23)cn1
Prompt line: Which of the two gives a bigger number for IC50: 1 or 2 ? Let me know the label of the one you choose.
Response line: 1

* * *

Target: Tyrosine-protein kinase JAK2 (Homo sapiens)
Assay: Inhibition of JAK2 using biotin-EQEDEPEGDYFEWLE- NH2 as substrate
pIC50: −log10 of the molar value.
recorded.metric: pIC50

Consider the reported pIC50 for these compounds:
Cn1cc(-c2ccc3[nH]c4c(C(N)=O)cnc(NC5CCCCC5)c4c3c2)cn1 ... 7.89
NC(=O)c1cnc(N[C@H](C2CC2)C(F)(F)F)c2c1[nH]c1cc(-c3cn[nH]c3)ccc12 ... 9.00
CC(C)[C@@H](Nc1ncc(C(N)=O)c2[nH]c3cc(-c4cnn(C)c4)ccc3c12)C(F)(F)F ... 8.52
Cn1cc(-c2ccc3c(c2)[nH]c2c(C(N)=O)cnc(N[C@@H](C4CC4)C(F)(F)F)c23)cn1 ... 8.05
C[C@H](Nc1ncc(C(N)=O)c2[nH]c3cc(-c4cnn(C)c4)ccc3c12)C1CC1 ... 9.00
CCC(Nc1ncc(C(N)=O)c2[nH]c3cc(-c4cnn(C)c4)ccc3c12)C1CC1 (centres undefined) ... 8.70
NC(=O)c1cnc(NC2CCCCC2)c2c1[nH]c1cc(-c3ccccc3)ccc12 ... 7.15
Cn1cc(-c2ccc3c(c2)[nH]c2c(C(N)=O)cnc(NC4CCCCC4)c23)cn1 ... 8.30
NC(=O)c1cnc(NC2CCOCC2)c2c1[nH]c1ccc(F)cc12 ... 7.74
NC(=O)c1cnc(NC2CCC2)c2c1[nH]c1ccc(F)cc12 ... 7.08

a: NC(=O)c1cnc(NC(C2CC2)C2CC2)c2c1[nH]c1cc(-c3cn[nH]c3)ccc12
b: NC(=O)c1cnc(NC2CCCCC2)c2c1[nH]c1ccc(-c3ccccc3)cc12
Prompt line: Two entries are listed, a and b . Which one carries the higher pIC50? Indicate your choice by writing its label.
Response line: a

A: NC(=O)c1cnc(NC2CCCC2)c2c1[nH]c1ccc(F)cc12
B: NC(=O)c1cnc(N[C@H](C2CC2)C(F)(F)F)c2c1[nH]c1cc(-c3cnc(N4CCOCC4)nc3)ccc12
Prompt line: Sorting ascending by pIC50, which comes first: A or B ? Kindly state the label of the option you pick.
Response line: A
(A: 7.29, B: 8.10)

A: C[C@@H](Nc1ncc(C(N)=O)c2[nH]c3ccc(F)cc3c12)C(C)(C)C
B: C[C@@H](Nc1ncc(C(N)=O)c2[nH]c3cc(-c4cnn(C)c4)ccc3c12)C1CC1
Prompt line: Task for the reader: decide whether A or B has the larger pIC50. Give the label of your selection.
Response line: B
(B: 7.96, A: 6.68)

P: C[C@H](Nc1ncc(C(N)=O)c2[nH]c3cc(-c4ccc(Cl)nn4)ccc3c12)C(C)(C)C
Q: NC(=O)c1cnc(N2CCCC2)c2c1[nH]c1ccc(F)cc12
R: Cn1cc(-c2ccc3c(c2)[nH]c2c(C(N)=O)cnc(N[C@H](C4CC4)C(F)(F)F)c23)cn1
Prompt line: Order these by pIC50, descending, and give the full ranking. Hello, could you send the labels back in the order asked? Thank you.
Response line: R, P, Q
